Tested on: human liver cancer cells (HepG2)
EXPERIMENT_DESCRIPTION: Tumor weight and tumor inhibition in nude mice bearing HepG2
Format: in vivo
SETTINGS: Table 11; avg tumor volume 164 mm^3; intratumoral every 3 days x3, ≤150 μl; fifth day after last dose

| COMPOUND | Tumor inhibition rate |
| --- | --- |
| CC(=O)O [2% acetic acid, acetic acid] | (46%) |
| Cl [0.5% hydrochloric acid, hydrochloric acid] | (53%) |
| CC(=O)O [5% acetic acid, acetic acid, reference compound] | (71%) |
| Cl [1% hydrochloric acid, hydrochloric acid] | (68%) |
| CN(C)c1ccc2nc3ccc(=[N+](C)C)cc-3sc2c1 [0.25% methylene blue, Methylene blue] | (11%) |

----------
Test system: human thyroid cancer cells (SW579)
EXPERIMENT_DESCRIPTION: Tumor inhibition in nude mice bearing human thyroid cancer cells (SW579)
SETTINGS: Example 2; intratumoral 100 μl/mouse every 3 days x3; next day; avg tumor volume 103 mm^3
Peptide text beside a SMILES is read from it.

| COMPOUND | ASSAY_SYSTEM | Tumor inhibition rate / % |
| --- | --- | --- |
| Cl.N[C@@H](CCC(=O)O)C(=O)O [3% glutamic hydrochloride, L-glutamic hydrochloride] | human thyroid cancer cells (SW579) | 63 |
| N[C@@H](CCC(=O)N[C@@H](CS)C(=O)NCC(=O)O)C(=O)O | human thyroid cancer cells (SW579) | 61 |
| C[C@H](N)C(=O)N[C@@H](CCC(N)=O)C(=O)O [10% ALA-GLN, Alanyl-glutamine dipeptide] (H-Ala-Gln-OH) | human thyroid cancer cells (SW579) | 59 |
| N=C(N)NCCC[C@H](N)C(=O)O | human thyroid cancer cells (SW579) | 62 |

----------
Tested on: breast cancer 4T1 cells
EXPERIMENT_DESCRIPTION: Tumor weight and tumor inhibition in BALB/c mice bearing breast cancer 4T1 cells;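 note: subcutaneous grafts in the right axilla, tumors excised and weighed after euthanasia, inhibition rate derived from group mean tumor weight versus the negative control group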
SETTINGS: Table 13; avg tumor volume 307 mm^3; intratumoral 150 μl/mouse every 3 days x3; 5th day
Attribute: Tumor weight (g) (x ± s)

| COMPOUND | Tumor weight (g) (x ± s) |
| --- | --- |
| O=C([O-])[O-].[Na+].[Na+] [14% sodium carbonate, sodium carbonate] | 1.47 |
| O=C([O-])O.[Na+] [5% sodium bicarbonate, sodium bicarbonate] | 1.79 |
| N=C(N)NCCC[C@H](N)C(=O)O [15% arginine, L-arginine] | 1.74 |
| O=C([O-])[O-].[Na+].[Na+] [7% sodium carbonate, sodium carbonate] | 1.81 |
| O=C([O-])O.[Na+] [10% sodium bicarbonate, sodium bicarbonate] | 1.58 |
| O=C([O-])O.[Na+] [2% sodium bicarbonate, sodium bicarbonate] | 2.10 |
| O=C([O-])[O-].[Na+].[Na+] [2.8% sodium carbonate, sodium carbonate] | 2.10 |

----------
Tested on: human liver cancer cells (HepG2)
EXPERIMENT_DESCRIPTION: Tumor weight and tumor inhibition in nude mice bearing HepG2
Type: in vivo
SETTINGS: Table 11; avg tumor volume 164 mm^3; intratumoral every 3 days x3, ≤150 μl; fifth day after last dose

| COMPOUND | Tumor inhibition rate |
| --- | --- |
| CC(=O)O [1% acetic acid, acetic acid] | (26%) |
| CC/C=C\C/C=C\C/C=C\C/C=C\C/C=C\C/C=C\CCC(=O)O [3% DHA, Docosahexaenoic acid (DHA)] | (21%) |
| N[C@@H](CCC(=O)N[C@@H](CS)C(=O)NCC(=O)O)C(=O)O [5% glutathione, Reduced glutathione] | (31%) |
| CC/C=C\C/C=C\C/C=C\C/C=C\C/C=C\C/C=C\CCC(=O)O [5% DHA, Docosahexaenoic acid (DHA)] | (28%) |
| Cl [2% hydrochloric acid, hydrochloric acid] | (83%) |
